Cited source for all entries: the nanobody polyreactivity screen of Harvey et al. (2022)

Assay: yeast display, Sf9 membrane polyspecificity reagent, FACS + sequencing; frameworks hold sequencing errors

>  <CHAIN>
QVQLVESGGGLVQAGGSLRLSCAASGFTFKGNAMGWKRPAPGKERELVAGISRSGRTYYADSVKGRFTISRDNAKNTVYLQMNSLKPEDTAVYYCNVVYTYWRYYRWREYDYWGQGTQVTVSS

>  <polyreactivity (PSR sort gate)>
high polyreactivity

$$$$
>  <CHAIN>
QVQLVESGGGLVHEGRSLRLSCAASGSKYSYDAMGWYRQAPGTERELVPTISWRGRTYYADSVKGRFTISRDNAKNTVYLKMISLKPEDTAVYYCNTKSLYGRSRGYPYDYWGQGTQVTVSS

>  <polyreactivity (PSR sort gate)>
high polyreactivity

$$$$
>  <CHAIN>
QVQLVESGGGLVQAGGSLRLSCAASGRTFISYAMGWYRQAPGKERELVAGISRGGSTYYADSVKGRFTISRDNAMNTVYLQMNRLKPEDTAVYYCAARRWISSHSYKYGYWGQGTQVTVSS

>  <polyreactivity (PSR sort gate)>
high polyreactivity

$$$$

###

Assay: yeast display, Sf9 membrane polyspecificity reagent, FACS + sequencing; frameworks hold sequencing errors
MEASUREMENT LABEL: polyreactivity (PSR sort gate)

>  <CHAIN>
QVQLGESGGGLVQAGGSLRLSCAASGRIFASNAMGWYRPAPGKESELVAAIDQSGGSTYYADSVKGRFTISRDNAKNTVYLQMNSLKPEDTAVYYCAARAYLISSSTPFWTGYDSWGQGTQVTVSS

>  <RESULT>
low polyreactivity

$$$$
>  <CHAIN>
QVQLVESGGGLVQAGGSLRLSCASSGSISAVNTMGWYRQAPGKERELVATISYSTASTYYADSVKGRFTMSRDNAKKTVYLQMNSLKPEDTAVYYCNKDGRWYAYNSEYDHWGQGTQVTVSS

>  <RESULT>
low polyreactivity

$$$$
>  <CHAIN>
QVQLVESGGGLVQAGGSLRLSCAASGSIFEYNGMGWYRQAPGKERELVAAITTTGTTDYADSVKGRFTISRDNAKNTVYLEMNSLIPEDTSVFYCAADYTYYYKGEYEYWGQGTQVTVSS

>  <RESULT>
low polyreactivity

$$$$
>  <CHAIN>
QVQLVESGGGLVQAGGSLRLSCAASGSTFRKYAMGWYRQAPGKEREFVAAITWSTGTTYYADSVKGRFTISRDNAKNNVYLQMNSLKPEDTAVYYSAADSQPPHELDESIEHESWGQGTQVTVSS

>  <RESULT>
low polyreactivity

$$$$
>  <CHAIN>
QVQLVESGGGLVQAGGSLRLSCAASGFTFGAYAMGWYRQAPGKERELVAAITWSGSSTYYADSVKGRFTISRDNAKNTVYLQMNSLKPEDTAVYYCNVQDKGYVSYYGGDSWGQGTQVTVSS

>  <RESULT>
high polyreactivity

$$$$
>  <CHAIN>
KVQLVESGGGFVQAGGSLRLSCAPSGSIFTWNAMGLYRQAPGKERELVAAITRGGSTYADSVKGRFTLSRDNAKNTVYLQMNSLKPEDTAVYYCNAVYGVYEFNYWGQGTQVTVSS

>  <RESULT>
low polyreactivity

$$$$
>  <CHAIN>
QVQLVESGGGLVHAGGSLRLSCAASGSTFYYYAMGWYRQAPGKERELVAAIRGDSTYYADSVKGRFTISRDNAKYTVYLQMYSLKTEDTAFYYCAADWYDTGFWWTYPYDYWGQGTQVTVSS

>  <RESULT>
low polyreactivity

$$$$
>  <CHAIN>
QVQLVESGAGLVQAGGSLRLSCAASGRIFDIYAMGWYRQAPGKERELVAAITRRGGTTYADSVKGRFTISRDNAKNTVYLQMNSLKPEDTAVYYCARYHWYYRVSKSDSWGQGTQVTVSS

>  <RESULT>
high polyreactivity

$$$$
>  <CHAIN>
QVQLVESGGGLVQAGGSLRLSCAASGRIFVRNAMGWYRQAPGKEREFVAAISRSGGSTYYADSVKGRFTISRDNAKNTVYLQMNSLKPEDTAVYYCAADYPKTYTSKFNYWGQGTQVTVSS

>  <RESULT>
high polyreactivity

$$$$
>  <CHAIN>
QVQLVESGGGLVQAGGSLRLSCAASGRIFWRYAMGWYRQAPGKERELVAAITGRTGSTNYADSVKGRFTISRDNANNTVYLQMNSLKREDTAVYYCAAAHHRWTGLFPSGYEFDYWGQGTQVTVSS

>  <RESULT>
low polyreactivity

$$$$

query: Find the measured polyreactivity (PSR sort gate) of QVQLEESGGGLVQAGGSLRLSCAASGSTFPGNALGWYRQAPGKERELVAAITSSGGSTDYADSVKGRFTISRDNAKNTVYLQMNSLKPEDTAVYYCAADGEDSLWTGYDYDYWGQGTQVTVSS and report it.
result: low polyreactivity
